- Test system: YH-13 (Glioblastoma);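 note: after 72 h of two-drug dosing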
- test_description: Bliss excess, mean over the matrix (fraction); higher = more synergy
Catalogue of Bliss excess readings, one per entry.
Write no unit; give the number alone.

>>> value_reported("CC(=O)Nc1cccc(-n2c(=O)n(C3CC3)c(=O)c3c(Nc4ccc(I)cc4F)n(C)c(=O)c(C)c32)c1 [Trametinib] + Cc1nc(-c2cn3c(n2)-c2ccc(-c4cnn(C(C)(C)C(N)=O)c4)cc2OCC3)n(C(C)C)n1 [Taselisib] (first compound max 1 µM, 7x7, partner max 10 µM)")
0.0704

Q: Form field: reported Bliss excess of COc1nnc2ccc(N3CCC(c4ccc(OCCN5CCN(C)C(=O)[C@H]5C)cc4)CC3)nn12 [AZD5153] + C=CCn1c(=O)c2cnc(Nc3ccc(N4CCN(C)CC4)cc3)nc2n1-c1cccc(C(C)(C)O)n1 [AZD1775] (first compound max 1 µM, partner max 1 µM)
Result: -0.0451

Q: Form field: reported Bliss excess of CN(C)CCCOc1ccc(-c2ccc3ncc4c(c3c2)n(C2CCOCC2)c(=O)n4C)cn1 [AZD0156] + C=CCn1c(=O)c2cnc(Nc3ccc(N4CCN(C)CC4)cc3)nc2n1-c1cccc(C(C)(C)O)n1 [AZD1775] (first compound max 1 µM, partner max 1 µM)
Result: -0.0238

Q: Form field: reported Bliss excess of CS(=O)(=O)CCNCc1ccc(-c2ccc3ncnc(Nc4ccc(OCc5cccc(F)c5)c(Cl)c4)c3c2)o1 [Lapatinib] + C[C@@H](Oc1cc(-c2cnn(C3CCNCC3)c2)cnc1N)c1c(Cl)ccc(F)c1Cl [Crizotinib] (first compound max 10 µM, 7x7, partner max 10 µM)
Result: -0.0388

Q: Form field: reported Bliss excess of COc1nnc2ccc(N3CCC(c4ccc(OCCN5CCN(C)C(=O)[C@H]5C)cc4)CC3)nn12 [AZD5153] + C[C@@H]1COCCN1C2=NC(=NC(=C2)C3(CC3)[S@](=N)(=O)C)C4=C5C=CNC5=NC=C4 [AZD6738] (first compound max 1 µM, 7x7, partner max 10 µM)
Result: -0.0157

Q: Form field: reported Bliss excess of NC1(C(=O)N[C@@H](CCO)c2ccc(Cl)cc2)CCN(c2ncnc3[nH]ccc23)CC1 [Capivasertib] + Cn1cnc2c(F)c(Nc3ccc(Br)cc3Cl)c(C(=O)NOCCO)cc21 [Selumetinib] (first compound max 10 µM, 7x7, partner max 10 µM)
Result: 0.0235

Q: Form field: reported Bliss excess of COc1cc2ncnc(Nc3ccc(F)c(Cl)c3)c2cc1OCCCN1CCOCC1 [Gefitinib] + CC(C)n1c(=O)n(C)c2cnc3cc(F)c(-c4ccc(OCCCN5CCCCC5)nc4)cc3c21 [AZD1390] (first compound max 10 µM, 7x7, partner max 0.3 µM)
Result: -0.0848

Q: Form field: reported Bliss excess of Cc1cc2ncnn2cc1Nc1ncc2c(n1)n(C1CCOCC1)c(=O)n2C [AZD7648] + C=CCn1c(=O)c2cnc(Nc3ccc(N4CCN(C)CC4)cc3)nc2n1-c1cccc(C(C)(C)O)n1 [AZD1775] (first compound max 10 µM, partner max 1 µM)
Result: 0.0076

Q: Form field: reported Bliss excess of CN(CCO)CC[C@H](CSc1ccccc1)Nc1ccc(S(=O)(=O)NC(=O)c2ccc(N3CCC([C@@H](O)c4ccccc4-c4ccc(Cl)cc4)CC3)cc2)cc1S(=O)(=O)C(F)(F)F [AZD4320] + C1CN(CCC1(C(=O)N[C@@H](CCO)C2=CC=C(C=C2)Cl)N)C3=NC=NC4=C3C=CN4 [Capivasertib] (first compound max 1 µM, 7x7, partner max 3 µM)
Result: -0.0491

Q: Form field: reported Bliss excess of Cc1c2c(nn1C)CSCc1cc(n(C)n1)CSc1cc(c3ccccc3c1)OCCCc1c(C(=O)O)n(C)c3c-2c(Cl)ccc13 [AZD5991] + CCN(CCO)CCCOc1ccc2c(Nc3cc(CC(=O)Nc4cccc(F)c4)[nH]n3)ncnc2c1 [AZD2811] (first compound max 1 µM, 7x7, partner max 1 µM)
Result: 0.0141

Q: Form field: reported Bliss excess of CN(CCO)CC[C@H](CSc1ccccc1)Nc1ccc(S(=O)(=O)NC(=O)c2ccc(N3CCC([C@@H](O)c4ccccc4-c4ccc(Cl)cc4)CC3)cc2)cc1S(=O)(=O)C(F)(F)F [AZD4320] + CCN(CCO)CCCOc1ccc2c(Nc3cc(CC(=O)Nc4cccc(F)c4)[nH]n3)ncnc2c1 [AZD2811] (first compound max 1 µM, 7x7, partner max 1 µM)
Result: 0.0819

Q: Form field: reported Bliss excess of COc1nnc2ccc(N3CCC(c4ccc(OCCN5CCN(C)C(=O)[C@H]5C)cc4)CC3)nn12 [AZD5153] + Cn1cnc2c(F)c(Nc3ccc(Br)cc3Cl)c(C(=O)NOCCO)cc21 [Selumetinib] (first compound max 1 µM, 7x7, partner max 10 µM)
Result: -0.0356

Q: Form field: reported Bliss excess of COc1cccc(OCCCN)c1-c1cc(Nc2cnc(C#N)cn2)n[nH]1 [Prexasertib] + C=CCn1c(=O)c2cnc(Nc3ccc(N4CCN(C)CC4)cc3)nc2n1-c1cccc(C(C)(C)O)n1 [AZD1775] (first compound max 1 µM, partner max 1 µM)
Result: 0.0439

Q: Form field: reported Bliss excess of NC1(C(=O)N[C@@H](CCO)c2ccc(Cl)cc2)CCN(c2ncnc3[nH]ccc23)CC1 [Capivasertib] + COc1nnc2ccc(N3CCC(c4ccc(OCCN5CCN(C)C(=O)[C@H]5C)cc4)CC3)nn12 [AZD5153] (first compound max 10 µM, 7x7, partner max 1 µM)
Result: 0.0553
